Test system: LOX IMVI melanoma
Experiment: NCI tumour cell line growth inhibition, 48 h
property: TGI

- compound: "CCCNC(=O)C(C)C1CCC2(C)C=CC(=O)C(C)=C2C1O (stereo not given)"
  observedResult: "> 100 µM"

Known value: LOX IMVI melanoma TGI of the compound "O=C(/C=C\c1cccc([N+](=O)[O-])c1)/C=C/c1cccc([N+](=O)[O-])c1" equals 4.56 µM

The measured TGI that "Oc1ccc(-c2cc(-c3cc(-c4ccc(O)cc4)no3)on2)cc1" showed for LOX IMVI melanoma is > 100 µM

Here CCC1(c2ccccc2)C(=O)N=C(c2ccccc2)N1CCc1ccccc1 (stereo not given) was tested on LOX IMVI melanoma, and its TGI came to > 100 µM

Case "CCOC(=O)C1=C(C)N(c2ccc(Cl)cc2)[C@]2(C#N)C(O)=C(Cl)C(Cl)=C(O)[C@]12C#N" , LOX IMVI melanoma, TGI recorded as > 100 µM

Measured on LOX IMVI melanoma, CN1C(=O)N(C)C2C1NN=c1s/c(=C\c3ccc(C(F)(F)F)cc3)c(=O)n12 (stereo not given) has a documented TGI of > 100 µM

Field TGI (system: LOX IMVI melanoma) for entry "NCCSS(=O)(=O)CCN" = > 100 µM

The reported LOX IMVI melanoma TGI of "Cc1cc(S(=O)(=O)/N=C(/N)Nc2ccccc2O)c(SCc2ccccc2)cc1Cl" is 33.5 µM

Considering "COc1ccccc1-c1cc(=O)c2cc(C)cnc2[nH]1" , its TGI with LOX IMVI melanoma was recorded as > 100 µM

The compound "O=C1c2c(c3c4ccccc4[nH]c3c3ccc4ccccc4c23)C(=O)N1CCN1CCNCC1" , when measured on LOX IMVI melanoma, yielded TGI of 3.11 µM
